Recorded values, source paper PMC10397247.

- MEASURED_TARGET: T1, 4H1985-bA
- T1 chain: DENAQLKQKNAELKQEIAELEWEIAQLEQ
- ASSAY_NOTES: two-hybrid library CCNG1;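 also: natural log of median RNA to DNA barcode read ratio; higher means stronger binding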
PROPERTY_MEASURED: interaction score

binder="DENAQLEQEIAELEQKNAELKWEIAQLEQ [4H1081-bA]" quantitative_readout=-0.96
binder="DENAQLEQENAELKQEIAELEWKIAQLKQ [4H1222-bA]" quantitative_readout=1.8
binder="DENAQLEQKNAELEQKIAELKWEIAQLEQ [4H1449-bA]" quantitative_readout=0.787
binder="DENAQLKQEIAELEQEIAELEWKNAQLKQ [4H1544-bA]" quantitative_readout=0.274
binder="DENAQLEQKIAELKQEIAELEWENAQLKQ [4H1348-bA]" quantitative_readout=-0.366
binder="DENAQLEQKIAELKQEIAELKWKNAQLEQ [4H1359-bA]" quantitative_readout=0.768
binder="DENAQLEQKIAELEQKNAELKWEIAQLKQ [4H1338-bA]" quantitative_readout=0.203
